System: AMPK
PROTOCOL SUMMARY: Measurement of AMPK activity by Western blot in C2C12 cells
Type: cell-based
Parameters: key: fold increase in threonine-172 phosphorylation
EXPERIMENTAL CONDITIONS: 10 μM for 50 minutes, no superscript: Western blot of serine-79 and threonine-172 phosphorylation
Description: C2C12 cells were cultured and differentiated in the same manner as in Experimental Example 1. Treatment with the test materials was also performed in the same manner as in Experimental Example 1 (10 μM for 50 minutes). […] The AMPK activity was determined from Western blot analysis of the degree of phosphorylation of serine-79 […] acetyl CoA carboxylase and the degree of phosphorylation of threonine-172. […]
READOUT: AMPK activity (degree of phosphorylation of serine-79 and threonine-172)
Give only the figure.

## Input Report measured AMPK activity (degree of phosphorylation of serine-79 and threonine-172); entry is COc1ccccc1CNc1nc(C(OC)c2ccccc2)nc2ccccc12 (stereo not drawn) [Compound 360]
## Output 2.2

* * *

Test system: AMPK
PROTOCOL SUMMARY: Measurement of AMPK activity by Western blot in C2C12 cells
Format: cell-based
Parameters: key: fold increase in threonine-172 phosphorylation
EXPERIMENTAL CONDITIONS: 10 μM for 50 minutes, no superscript: Western blot of serine-79 and threonine-172 phosphorylation
Class true: AMPK activity (degree of phosphorylation of serine-79 and threonine-172) at least 1. Class false: AMPK activity (degree of phosphorylation of serine-79 and threonine-172) below 1.

Below are worked cases with known answers.
COc1cc(CNc2ncnc3ccccc23)cc(OC)c1 [Compound 409]: true
COc1ccccc1CNc1nc(Cc2ccccc2)nc2ccccc12 [Compound 328]: true

## Input Identify whether the reported AMPK activity (degree of phosphorylation of serine-79 and threonine-172) of the following molecule is 1 or greater: COc1cc(CNc2nc(-c3ccco3)nc3ccccc23)cc(OC)c1 [Compound 343]
## Output false

## Input Identify whether the reported AMPK activity (degree of phosphorylation of serine-79 and threonine-172) of the following molecule is 1 or greater: COc1ccc(CNc2nc(-c3ccco3)nc3ccccc23)cc1OC [Compound 344]
## Output false

## Input Identify whether the reported AMPK activity (degree of phosphorylation of serine-79 and threonine-172) of the following molecule is 1 or greater: CC(C)c1nc(OCc2ccccc2)c2ccccc2n1 [Compound 415, 4-Benzyloxy-2-isopropylquinazoline]
## Output true

* * *

Overview of recorded AMPK activity (degree of phosphorylation of serine-79 and threonine-172) for various molecules
System: AMPK
PROTOCOL SUMMARY: Measurement of AMPK activity by Western blot in C2C12 cells
Assay type: cell-based
Parameters: key: fold increase in threonine-172 phosphorylation
EXPERIMENTAL CONDITIONS: 10 μM for 50 minutes, no superscript: Western blot of serine-79 and threonine-172 phosphorylation

CC(c1ccccc1)c1nc(NCc2ccc3c(c2)OCO3)c2ccccc2n1 (stereo not shown): 1.9

## Input Report measured AMPK activity (degree of phosphorylation of serine-79 and threonine-172); entry is COc1ccc(CNc2nc(-c3ccco3)nc3ccccc23)c(OC)c1
## Output 0.8

## Input Report measured AMPK activity (degree of phosphorylation of serine-79 and threonine-172); entry is COc1cc(OC)c(CNc2nc(N3CCN(C)CC3)nc3ccccc23)c(OC)c1
## Output 0.5

## Input Report measured AMPK activity (degree of phosphorylation of serine-79 and threonine-172); entry is FC(F)(F)c1cccc(CNc2nc(-c3ccccn3)nc3ccccc23)c1
## Output 4.3

## Input Report measured AMPK activity (degree of phosphorylation of serine-79 and threonine-172); entry is COc1cc(OC)c(CNc2nc(-c3ccco3)nc3ccccc23)c(OC)c1
## Output 1.6

## Input Report measured AMPK activity (degree of phosphorylation of serine-79 and threonine-172); entry is CCCc1nc(NCc2c(OC)cc(OC)cc2OC)c2ccccc2n1
## Output 1.3

## Input Report measured AMPK activity (degree of phosphorylation of serine-79 and threonine-172); entry is COc1ccc(CNc2nc(N3CCCCC3)nc3ccccc23)c(OC)c1
## Output 1.2

## Input Report measured AMPK activity (degree of phosphorylation of serine-79 and threonine-172); entry is COc1cccc(CNc2nc(C(C)C)nc3ccccc23)c1
## Output 4.4

* * *

Test system: AMPK
PROTOCOL SUMMARY: Measurement of AMPK activity by Western blot in C2C12 cells
Assay type: cell-based
Set-up: key: fold increase in threonine-172 phosphorylation
EXPERIMENTAL CONDITIONS: 10 μM for 50 minutes, no superscript: Western blot of serine-79 and threonine-172 phosphorylation
READOUT: AMPK activity (degree of phosphorylation of serine-79 and threonine-172)
Give only the figure.

See these solved cases before continuing.
COc1ccc(CNc2nc(N3CCN(C)CC3)nc3ccccc23)cc1: 1.0
COc1ccc(CNc2nc(-c3cccs3)nc3ccccc23)cc1OC: 1.1

## Input Report measured AMPK activity (degree of phosphorylation of serine-79 and threonine-172); entry is Cc1nc(NCc2ccc3c(c2)OCO3)c2ccccc2n1
## Output 8.8

## Input Report measured AMPK activity (degree of phosphorylation of serine-79 and threonine-172); entry is COc1ccc(CNc2nc(N3CCOCC3)nc3ccccc23)cc1
## Output 1.6

## Input Report measured AMPK activity (degree of phosphorylation of serine-79 and threonine-172); entry is CC(C)c1nc(SCc2ccccc2)c2ccccc2n1
## Output 0.7

## Input Report measured AMPK activity (degree of phosphorylation of serine-79 and threonine-172); entry is CCCc1nc(NCc2cccc(OC)c2OC)c2ccccc2n1
## Output 6.5

## Input Report measured AMPK activity (degree of phosphorylation of serine-79 and threonine-172); entry is COc1ccc(CNc2nc(C(C)c3ccccc3)nc3ccccc23)cc1OC (stereo not shown)
## Output 2.3

## Input Report measured AMPK activity (degree of phosphorylation of serine-79 and threonine-172); entry is COc1cccc(CNc2nc(N3CCN(C)CC3)nc3ccccc23)c1
## Output 0.9

## Input Report measured AMPK activity (degree of phosphorylation of serine-79 and threonine-172); entry is COc1cc(OC)c(CNc2nc(N3CCCCC3)nc3ccccc23)c(OC)c1
## Output 1.2

* * *

Tested on: AMPK
PROTOCOL SUMMARY: Measurement of AMPK activity by Western blot in C2C12 cells
Type: cell-based
Parameters: key: fold increase in threonine-172 phosphorylation
EXPERIMENTAL CONDITIONS: 10 μM for 50 minutes, no superscript: Western blot of serine-79 and threonine-172 phosphorylation
Class 1 (yes): AMPK activity (degree of phosphorylation of serine-79 and threonine-172) at least 2. Class 0 (no): AMPK activity (degree of phosphorylation of serine-79 and threonine-172) below 2.

Below are worked cases with known answers.
COc1cc(OC)c(CNc2nc(N3CCOCC3)nc3ccccc23)c(OC)c1: 0 (no)
COc1ccc(CNc2nc(N3CCN(C)CC3)nc3ccccc23)cc1OC: 0 (no)
COc1cc(OC)c(CNc2nc(C(C)C)nc3ccccc23)c(OC)c1: 1 (yes)

## Input Identify whether the reported AMPK activity (degree of phosphorylation of serine-79 and threonine-172) of the following molecule is 2 or greater: COc1cc(CNc2nc(N3CCN(C)CC3)nc3ccccc23)cc(OC)c1OC
## Output 0 (no)

* * *

Tested on: AMPK
PROTOCOL SUMMARY: Measurement of AMPK activity by Western blot in C2C12 cells
Assay type: cell-based
Parameters: key: fold increase in threonine-172 phosphorylation
EXPERIMENTAL CONDITIONS: 10 μM for 50 minutes, no superscript: Western blot of serine-79 and threonine-172 phosphorylation
READOUT: AMPK activity (degree of phosphorylation of serine-79 and threonine-172)
Give only the figure.

COc1cccc(CNc2nc(N3CCOCC3)nc3ccccc23)c1 [Compound 281]: 0.9
COc1ccccc1CNc1nc(N2CCN(C)CC2)nc2ccccc12 [Compound 278]: 1.2
c1ccc(-c2nc(NCc3ccc4c(c3)OCO4)c3ccccc3n2)nc1 [Compound 230]: 4.9
CC(C)(C)c1nc(NCCCCc2ccccc2)c2ccccc2n1 [Compound 192]: 6.5
COc1ccc(OC)c(CNc2nc(C(C)C)nc3ccccc23)c1 [Compound 326]: 2.9
CCCc1nc(NCc2ccccc2OC)c2ccccc2n1 [Compound 393]: 1.0
COc1ccc(OC)c(CNc2nc(-c3ccco3)nc3ccccc23)c1 [Compound 347]: 1.2
Cc1nc(NCCCCc2ccccc2)c2ccccc2n1 [Compound 168]: 8.4

## Input Report measured AMPK activity (degree of phosphorylation of serine-79 and threonine-172); entry is COc1ccc(CNc2nc(C3CCCCC3)nc3ccccc23)cc1 [Compound 201]
## Output 2.8

## Input Report measured AMPK activity (degree of phosphorylation of serine-79 and threonine-172); entry is COc1cc(CNc2nc(C(OC)c3ccccc3)nc3ccccc23)cc(OC)c1OC (stereo not shown) [Compound 367]
## Output 2.2

## Input Report measured AMPK activity (degree of phosphorylation of serine-79 and threonine-172); entry is c1ccc(-c2nc(NCc3cccc4ccccc34)c3ccccc3n2)nc1 [Compound 229]
## Output 4.7

## Input Report measured AMPK activity (degree of phosphorylation of serine-79 and threonine-172); entry is COc1ccc(CNc2nc(C(OC)c3ccccc3)nc3ccccc23)cc1OC (stereo not shown) [Compound 366]
## Output 1.6

## Input Report measured AMPK activity (degree of phosphorylation of serine-79 and threonine-172); entry is COc1cccc(CNc2nc(C(C)c3ccccc3)nc3ccccc23)c1 (stereo not shown) [Compound 372]
## Output 6.3

## Input Report measured AMPK activity (degree of phosphorylation of serine-79 and threonine-172); entry is c1ccc(-c2nc(NCC(c3ccccc3)c3ccccc3)c3ccccc3n2)cc1 [Compound 133]
## Output 1.3
